# Assay system: Prothrombin (Bos taurus)
# Method summary: Inhibition of bovine thrombin-mediated blood clotting formation in presence of human fibrinogen
Listed here are compounds together with their documented IC50.
Recorded metric: IC50 (µM)

• Cl.N=C(N)c1cccc(COc2ccc3cc(OCc4cccc(C(=N)N)c4)ccc3c2)c1 = 30
• Cl.N=C(N)c1ccc(OCc2ccc(COc3ccc(C(=N)N)cc3I)cc2)c(I)c1 = 1
• Cl.N=C(N)c1ccc(OCc2cccc(COc3ccc(C(=N)N)cc3)c2)cc1 = 25
• Cl.N=C(N)c1ccc(OCc2cccc(-c3cccc(COc4ccc(C(=N)N)cc4)c3)c2)cc1 = 0.73

====

# Assay system: Prothrombin (Bos taurus, UniProt P00735)
# Method summary: Inhibition of amidase activity of bovine thrombin using BANA as substrate after 15 to 40 mins
Reported Ki values for a set of compounds
Recorded metric: Ki (µM)

• N=C(N)c1cccc(OCc2ccc3cc(COc4cccc(C(=N)N)c4)ccc3c2)c1 = 5.1
• Cl.N=C(N)c1cccc(OCc2cccc(COc3cccc(C(=N)N)c3)c2)c1 = 4.6
• Cl.N=C(N)c1cccc(OCc2ccc(COc3cccc(C(=N)N)c3)cc2)c1 = 5
• Cl.N=C(N)c1ccc(OCc2c(Cl)c(Cl)c(Cl)c(COc3ccc(C(=N)N)cc3)c2Cl)cc1 = 1.5
• Cl.N=C(N)c1ccc(OCc2cc(COc3ccc(C(=N)N)cc3)c3ccccc3c2)cc1 = 5.2
• Cl.N=C(N)c1ccc(OCc2cccc(COc3ccc(C(=N)N)cc3)c2)cc1 = 4.8
• Cl.N=C(N)c1ccc(OCc2ccc(COc3ccc(C(=N)N)cc3)c3ccccc23)cc1 = 6.6
• N=C(N)c1ccc(COc2ccc3cc(OCc4ccc(C(=N)N)cc4)ccc3c2)cc1 = 6
• Cl.N=C(N)c1cccc(COc2ccc3cc(OCc4cccc(C(=N)N)c4)ccc3c2)c1 = 2.4
• Cl.N=C(N)c1ccc(COc2ccc3ccc(OCc4ccc(C(=N)N)cc4)cc3c2)cc1 = 4.9
• Cl.N=C(N)c1ccc(OCc2ccc(COc3ccc(C(=N)N)cc3)cc2)cc1 = 3.4
• Cl.N=C(N)c1ccc(OCc2cccc(COc3ccc(C(=N)N)cc3I)c2)c(I)c1 = 1.2
• Cl.N=C(N)c1cccc(OCc2cccc(-c3cccc(COc4cccc(C(=N)N)c4)c3)c2)c1 = 1.67
• N=C(N)c1ccc(OCc2c(Cl)c(Cl)c(COc3ccc(C(=N)N)cc3)c(Cl)c2Cl)cc1 = 6.7

====

# Organism: Cavia porcellus
# Method summary: Inhibition of guinea pig complement-mediated immune lysis of sheep red blood cells at 10 uM after 12 mins
Recorded metric: inhibition (%)

- N=C(N)c1ccc(OCc2c(Cl)c(Cl)c(COc3ccc(C(=N)N)cc3)c(Cl)c2Cl)cc1: 0
- N=C(N)c1ccc(OCCCCCOc2ccc(C(=N)N)cc2I)c(I)c1: 26.9
- Cl.N=C(N)c1ccc(OCc2cccc(COc3ccc(C(=N)N)cc3)c2)cc1: 0
- CC[n+]1c(-c2ccccc2)c2cc(NN=Nc3cccc(C(=N)N)c3)ccc2c2ccc(NN=Nc3cccc(C(=N)N)c3)cc21: 50

====

# Assay system: Prothrombin (Bos taurus)
# Method summary: Inhibition of bovine thrombin-mediated blood clotting formation in presence of human fibrinogen
Recorded metric: IC50 (µM)

• Cl.N=C(N)c1cccc(OCc2ccc(COc3cccc(C(=N)N)c3)cc2)c1 = 13
• Cl.N=C(N)c1ccc(OCc2cc(COc3ccc(C(=N)N)cc3)c3ccccc3c2)cc1 = 15
• Cl.N=C(N)c1ccc(OCc2c(Cl)c(Cl)c(Cl)c(COc3ccc(C(=N)N)cc3)c2Cl)cc1 = 8
• Cl.N=C(N)c1ccc(OCc2cccc(-c3cccc(COc4ccc(C(=N)N)cc4Br)c3)c2)c(Br)c1 = 10
